Reference source for all entries: patent US7435837B2

# test_target: human 5-HT2C receptor (Homo sapiens)
# Sequence (P28335 33-458): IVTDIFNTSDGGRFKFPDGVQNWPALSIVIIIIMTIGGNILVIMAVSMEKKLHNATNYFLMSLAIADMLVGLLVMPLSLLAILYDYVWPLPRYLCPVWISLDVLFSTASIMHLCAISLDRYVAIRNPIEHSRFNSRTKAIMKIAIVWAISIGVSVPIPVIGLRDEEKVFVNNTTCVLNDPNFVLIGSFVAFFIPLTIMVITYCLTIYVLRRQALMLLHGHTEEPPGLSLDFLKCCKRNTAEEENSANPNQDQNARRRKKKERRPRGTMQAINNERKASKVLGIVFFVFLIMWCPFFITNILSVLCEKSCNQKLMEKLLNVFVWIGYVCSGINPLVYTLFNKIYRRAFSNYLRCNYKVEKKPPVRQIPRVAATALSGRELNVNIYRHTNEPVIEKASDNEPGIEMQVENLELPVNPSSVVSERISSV
# protocol_details: 5-HT2C receptor-stimulated calcium mobilization (FLIPR) in CHO cells;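 further: Fluo-3-AM fluorescence read on FLIPR every 1 s, agonist added after 10 baseline reads, response taken as peak minus lowest raw fluorescence count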
# Format: cell-based
# condition: percentage of the response observed with a maximally effective concentration of 5-HT
measurement_name: 5-HT2C Function Emax (%)
Please respond with the number in % and leave the unit unwritten.

Examples with answers:
Cc1cc2c(c(-c3ccc(Cl)cc3Cl)c1)OC(CN)C2 (single isomer, unassigned; (+))    100
COc1cccc(-c2cc(F)cc3c2OC(CN)C3)c1OC (single isomer, unassigned; (+)) [Example 214]    70

Q: # get_value(readout='5-HT2C Function Emax (%)', item= CNCC1Cc2cc(C)cc(-c3cccc(OC)c3OC)c2O1 (single isomer, unassigned; (-)) )
Result: 60

Q: So what does the record say about 5-HT2C Function Emax (%) for CC(C)(C)c1cccc2c1OC(CN)C2 (single isomer, unassigned; (+)) ?
Result: 100
